Kindly supply the reported GI50 values for the records listed here.
- System: ACHN
- Experiment Description: NCI tumour cell line growth inhibition, 48 h
Structures can show the parent of a compound that is named as a salt. Calls of active or inactive are those of the source. No stated cut-off is given here; in the data, active = GI50 up to about 1.1 µM and inactive = higher.

Return reported GI50; argument: COc1ccc(OC)c(N2C(=O)CSC2c2cc(OC)c(OC)c(OC)c2)c1 (centres undefined)
> 100 µM (inactive)

Return reported GI50; argument: `c1ccc2c(c1)n1nnnc1c1nnnn21`
> 100 µM (inactive)

Return reported GI50; argument: COc1ccc(C2=C(Cl)c3cc(OC)c(OC)cc3C2OC)cc1OC (centres undefined)
> 100 µM (inactive)

Return reported GI50; argument: `Cc1ccsc1C(=S)Nc1ccc(Cl)c(/C=N/OC(C)C)c1`
25.2 µM (inactive)

Return reported GI50; argument: CC(=O)OCC1OC(n2c(C)c(C(C)=O)c(-c3ccc(Cl)cc3)c(C#N)c2=S)C(OC(C)=O)C(OC(C)=O)C1OC(C)=O (centres undefined)
> 100 µM (inactive)

Return reported GI50; argument: `CCCSc1ccc2[nH]c(/N=C/c3ccco3)cc2c1`
49.5 µM (inactive)

Return reported GI50; argument: `CC(C)[C@H](NC(=O)OCc1ccccc1)C(=O)N[C@H](/C=C/C(=O)OC(C)(C)C)CO`
> 100 µM (inactive)

Return reported GI50; argument: `COc1ccc(C(=O)/C(Br)=C/C(=O)O)cc1`
55 µM (inactive)

Return reported GI50; argument: `CC(C)c1ccc(/C=C2\N=C(c3ccc([N+](=O)[O-])cc3)OC2=O)cc1`
> 100 µM (inactive)

Return reported GI50; argument: `COc1ccc2c(c1)[n+]([O-])c(-c1ccc(Br)cc1)c(N)[n+]2[O-]`
47.8 µM (inactive)

Return reported GI50; argument: `COc1ccc(NC(=S)N/N=C/c2c(C)n(C)n(-c3ccccc3)c2=O)cc1`
34.7 µM (inactive)

Return reported GI50; argument: `Cc1c(S(=O)(=O)N/C(=N\O)Nc2ccc(Cl)cc2)sc2ccc(Cl)cc12`
15.2 µM (inactive)

Return reported GI50; argument: `O=C1NC(S(=O)(=O)O)=NNC12c1ccccc1-c1ccccc12`
> 10 µM (inactive)

Return reported GI50; argument: O=[N+]([O-])C(Cl)C(Cl)C(Cl)=C(Cl)Cl (centres undefined)
16.4 µM (inactive)

Return reported GI50; argument: `Clc1ccc(Cl)c(Nc2ccnc(SCc3ccccc3)n2)c1`
> 100 µM (inactive)

Return reported GI50; argument: `COc1ccc2c(cnc3c4cc(OC)c(OC)cc4ccc23)c1`
> 100 µM (inactive)

Return reported GI50; argument: `Cc1ccccc1NC(=O)Cc1nc2ccccc2s1`
15.4 µM (inactive)

Return reported GI50; argument: `O=C1[C@@H]2C(c3ccc(Br)cc3)=NO[C@@H]2C(=O)N1c1ccc(Cc2ccc(N3C(=O)[C@H]4C(c5ccc(Br)cc5)=NO[C@H]4C3=O)cc2)cc1`
> 40 µM (inactive)

Return reported GI50; argument: CCN1C(=S)n2cccc2C1CC(=O)c1ccc(Cl)cc1 (centres undefined)
> 100 µM (inactive)

Return reported GI50; argument: `Cc1cccc(C)c1NC(=O)C(=O)CC(=O)c1cccc([N+](=O)[O-])c1`
> 100 µM (inactive)

Return reported GI50; argument: COc1ccc([C@@H]2OC(=O)C3C2C(=O)O[C@H]3c2ccc(OC)c(OC)c2)cc1OC (some centres undefined)
> 100 µM (inactive)

Return reported GI50; argument: `Cc1ccc(S(=O)(=O)Nc2ccccc2C=O)cc1`
17.7 µM (inactive)

Return reported GI50; argument: `COc1cc(C(=O)/C=C/c2ccc(OCCSCCCCCCCCCCSCCOc3ccc(/C=C/C(=O)c4cc(OC)c(OC)c(OC)c4)cc3)cc2)cc(OC)c1OC`
> 100 µM (inactive)

Return reported GI50; argument: O=C(c1cc2ccccc2[nH]1)N1C2CCC1CN(CCOC(c1ccc(F)cc1)c1ccc(F)cc1)CC2 (centres undefined)
95.1 µM (inactive)

Return reported GI50; argument: `OCCN(CO)CO`
> 100 µM (inactive)

Return reported GI50; argument: CCN(CC)CCNc1ccc(C)c2sc3ccccc3c(=O)c12 [LUCANTHONE HYDROCHLORIDE]
3.54 µM (inactive)

Return reported GI50; argument: CC(=O)OC1COC(N2CCc3cc([N+](=O)[O-])ccc32)C(OC(C)=O)C1OC(C)=O (centres undefined)
> 100 µM (inactive)

Return reported GI50; argument: CC(NC(=O)C(Cc1ccc(OC(=O)c2ccccc2)cc1)NC(=O)OC(C)(C)C)C(=O)NCC(=O)NC(Cc1ccccc1)C(=O)NN (centres undefined)
> 100 µM (inactive)

Return reported GI50; argument: COc1ccc(C(C#N)NNC(=O)Cc2ccccc2)cc1OC (centres undefined)
> 100 µM (inactive)

Return reported GI50; argument: `Cc1ccc(S(=O)(=O)SCc2ccccc2)cc1`
32.8 µM (inactive)

Return reported GI50; argument: `COc1cc(C2C(C(=O)Nc3ccc([N+](=O)[O-])cc3)=C(C)NC(C)=C2C(=O)Nc2ccc([N+](=O)[O-])cc2)ccc1O`
24.3 µM (inactive)

Return reported GI50; argument: CCOC(=O)CC1(Cc2ccc(OCc3ccccc3)cc2)C(=O)OC(c2ccccc2)N1C(=O)c1ccccc1 (centres undefined)
> 100 µM (inactive)

Return reported GI50; argument: `Cc1ccc(C)c(NC(=O)CCc2nnc(S)[nH]2)c1`
> 100 µM (inactive)

Return reported GI50; argument: `NC(=S)NN=Cc1ccccc1OCc1cccc(COc2ccccc2C=NNC(N)=S)n1`
20.6 µM (inactive)

###

- System: TK-10
- Experiment Description: NCI tumour cell line growth inhibition, 48 h
Activity calls are given as the source filed them. Rule as the data show it: active = GI50 up to about 1.1 µM and inactive = higher.
Endpoint Name: GI50

Return reported GI50; argument: `COCCOC1=CC(=O)c2c(O)ccc(O)c2C1=O`
1.91 µM (inactive)

Return reported GI50; argument: Cc1ccc([N+](=O)[O-])c2c(NCC(O)CO)ccnc12 (stereo not given)
48.2 µM (inactive)

Return reported GI50; argument: `Cc1cc(C)c(N)c(C)c1N`
> 100 µM (inactive)

Return reported GI50; argument: `COC1=C(Br)C(=O)c2nc(C)ccc2C1=O`
18.4 µM (inactive)

Return reported GI50; argument: `COc1ccc(OC)c2sc(N3C(=O)/C(=C/c4ccccc4S)N=C3c3ccccc3)nc12`
> 100 µM (inactive)

Return reported GI50; argument: `CC1=CC(=O)/C(=C/Nc2nc(-c3ccc([N+](=O)[O-])cc3)cs2)C(=O)O1`
> 100 µM (inactive)

Return reported GI50; argument: CC(=O)OC12CC(C)C3(O)C4C=C(C)C(=O)[C@@]4(O)CC(CO)=C[C@H]3C1C2(C)C (stereo not given in full)
2.34 µM (inactive)

Return reported GI50; argument: `COc1cccc2cc(C(=O)Nc3ccccc3)c(=N)oc12`
> 100 µM (inactive)

Return reported GI50; argument: `O=C(c1ccccc1)n1cc(-c2ccccc2)c2c(=O)nc[nH]c21`
> 100 µM (inactive)

Return reported GI50; argument: `COc1ccc2c(c1)c1cc(OC)ccc1n2CCCCOc1ccc(-c2c3ccccc3c(-c3ccc(OCCCCn4c5ccc(OC)cc5c5cc(OC)ccc54)cc3)c3ccccc23)cc1`
> 100 µM (inactive)

###

- Test system: HCT-116
- Experiment Description: NCI tumour cell line growth inhibition, 48 h
Calls of active or inactive are those of the source. Cut-off read from the data, not from the text of the source: active = GI50 up to about 1.1 µM and inactive = higher.
Select the matching outcome among active, inactive

Call for entry O=C1C2=Nc3ccccc3C(O)(C(=O)O)N2c2ccccc21 (stereo not given) :
inactive

Call for entry `CCOC(=O)c1c2c(n(-c3ccc(C)cc3)c1C)-c1ccccc1C(=O)C2(C(=O)OCC)C(=O)OCC` :
inactive

Call for entry `O=C(/C(=C\c1ccccc1)CN1CCOCC1)c1ccc(Br)cc1` :
inactive

Call for entry O=C(O)CCC(NC(=O)c1ccc(Nc2cnc3ccc(C(F)(F)F)cc3n2)cc1)C(=O)O (stereo not given) :
inactive

Call for entry CC(=O)NC(ON1C(=O)COc2ccccc21)C(Cl)(Cl)Cl (stereo not given) :
inactive

Call for entry CCCCN[C@H]1C2C3CC4C5CC(C42)C1(C)C53 (stereo not given in full) :
inactive

Call for entry OCC1OC(NC(=S)NCCC(F)(F)C(F)(F)C(F)(F)C(F)(F)C(F)(F)C(F)(F)F)C(O)C(O)C1O (stereo not given) :
inactive

Call for entry CC(C)C1CN1CC(O)Cn1ccnc1[N+](=O)[O-] (stereo not given) :
inactive

Call for entry COc1cc2c(cc1OC)C1c3ccccc3CCN1CCC2.[O-][Cl+3]([O-])([O-])O (stereo not given) :
inactive

Call for entry `CC(C)(C)c1cc(Cc2ccc([N+](C)(C)C)cc2)c(O)c(C(C)(C)C)c1` :
inactive

Call for entry CN(C)c1c(C2OC(CO)C(O)C2O)c(=O)c1=O (stereo not given) :
inactive

Call for entry `c1ccc2c(c1)sc1c3cnccc3ccc21` :
inactive

Call for entry `NC(=S)N1N=C2c3ccccc3CC[C@H]2[C@@H]1c1ccc(Cl)cc1` :
inactive

Call for entry `COc1ccc(OC)c2sc(N3C(=O)/C(=C/c4ccccc4S)N=C3c3ccccc3)nc12` :
inactive

Call for entry COc1ccc(-n2c(C)nc3ccc(NC4OCC(OC(C)=O)C(OC(C)=O)C4OC(C)=O)cc3c2=O)cc1 (stereo not given) :
inactive

Call for entry `CC1(CC2=C(C(=O)NCCO[Si](C)(C)C(C)(C)C)C3(OCCO3)C2=O)OCCO1` :
inactive

Call for entry CC(C)(C)OC(=O)NNC(=O)C1Cc2ccccc2OC1=O (stereo not given) :
inactive

Call for entry `O=C(Nc1nc2ncn(CCOC(=O)c3ccccc3)c2c(=O)[nH]1)c1ccccc1` :
inactive

Call for entry `N[C@H]1CCN(c2c(F)cc3c(=O)c(C(=O)O)cn4c3c2Oc2c-4ccc3c2ccc2ccccc23)C1` :
active

Call for entry `COc1ccc2c(c1)c1cc(OC)ccc1n2CCCCOc1ccc(-c2c3ccccc3c(-c3ccc(OCCCCn4c5ccc(OC)cc5c5cc(OC)ccc54)cc3)c3ccccc23)cc1` :
inactive
